Assay: KB-3-1 Cancer Cell Toxicity qHTS against the NCATS CANVASS Library (AID 1347366); further: nearly all actives have a fitted effect of over 75% in size
Conditions: KB-3-1 viability, CellTiter-Glo luminescence, 72 h; series mostly up to 46.1 µM
Results filed as inconclusive are left out. Calls of active or inactive are those of the source. The call rests on the fitted dose curve; in most records, active means well fitted cell-killing curve with a large enough effect; inconclusive means small, poorly fitted or top-dose-only effect; inactive means flat fitted curve, though single readings scatter. Numbered stars: 1 amine (or outer) side, 2 acyl side, 3 side chain; on linkers, the order of the positions; unused ones are H or OH. Bridge positions count the residues as written; N and C are the ends. Square brackets hold non-standard residues; d marks the D form. Peptide text beside a SMILES is read from it. ξ: configuration not given here. Phe(3R-OH) = O=C([C@@H](N[*:1])[C@H](O[*:3])c1ccccc1)[*:2]; NMeTrp(4-OMe) = CN[C@@H](Cc1c[nH]c2cccc(OC)c12)C(=O)O; ξThr(3R)(O-yl) = C[C@@H](O[*:3])C(N[*:1])C(=O)[*:2]; NMeThr(3ξ) = CN[C@H](C(=O)O)C(C)O; NMeL = CN[C@@H](CC(C)C)C(=O)O; NMeV = CN[C@H](C(=O)O)C(C)C; ξIle = CC[C@H](C)C(N)C(=O)O; ξV = CC(C)C(N)C(=O)O
Your answer must be one of the following: active, inactive

Lookup: Record lookup: outcome of this test for `C=C[C@]1(C)CC[C@@H]([C@H](C)C(=O)OCC)O1` ?
Found: inactive

Lookup: Record lookup: outcome of this test for `C[C@@H]1C[C@H]2C[C@]3(CCCCN3C)[C@@H]3C[C@H]2[C@H](C1)N(C)C3` ?
Found: inactive

Lookup: Record lookup: outcome of this test for COc1ccc([C@@H]2c3cc(OC)c(OC)cc3C(=O)C(C)C2C)cc1OC (some centres undefined) ?
Found: inactive

***
Lookup: Record lookup: outcome of this test for `CCCCCCC[C@@H](C/C=C/CCC(=O)NCCc1c[nH]c2ccccc12)OC` ?
Found: inactive

Lookup: Record lookup: outcome of this test for CC[C@H](C)C(NC(=O)[C@@H](NC)C(C)C)C(=O)NC1C(=O)N(C)[C@@H](C(C)O)C(=O)N[C@@H](C(C)C)C(=O)N(C)[C@@H](CC(C)C)C(=O)NC(C(C)C)C(=O)N(C)[C@@H](C(C)C)C(=O)N(C)[C@@H](Cc2c[nH]c3cccc(OC)c23)C(=O)N[C@@H](C(C)C)C(=O)N[C@@H]([C@H](O)c2ccccc2)C(=O)N[C@@H](C(C)C)C(=O)O[C@@H]1C (stereo partly drawn) (H-[NMeV][ξIle][ξThr(3R)(O-yl)][NMeThr(3ξ)]V[NMeL][ξV][NMeV][NMeTrp(4-OMe)]V[Phe(3R-OH)]V; ester 3-C) ?
Found: inactive

Lookup: Record lookup: outcome of this test for `CCC1=C2CCCN3C(=O)O[C@H]([C@H]1OC(C)=O)[C@H]23` ?
Found: inactive

Lookup: Record lookup: outcome of this test for `C[C@@H]1O[C@@H](Oc2c(-c3ccc(O)cc3)oc3cc(O)cc(O)c3c2=O)[C@H](O)[C@H](O)[C@H]1O` ?
Found: inactive

Lookup: Record lookup: outcome of this test for C=C1C[C@@]23C=CC(=O)[C@@](C)(CCCC(C)C(=O)O)[C@@H]2C[C@@H]1CC3 (some centres undefined) ?
Found: inactive

From: PubChem BioAssay (NCATS)
